These entries and their values trace back to PubChem BioAssay (Tox21).

# measured.on: Cytochrome P450 2C19 (Homo sapiens) (UniProt P33261)
# Sequence (P33261 whole entry, looked up): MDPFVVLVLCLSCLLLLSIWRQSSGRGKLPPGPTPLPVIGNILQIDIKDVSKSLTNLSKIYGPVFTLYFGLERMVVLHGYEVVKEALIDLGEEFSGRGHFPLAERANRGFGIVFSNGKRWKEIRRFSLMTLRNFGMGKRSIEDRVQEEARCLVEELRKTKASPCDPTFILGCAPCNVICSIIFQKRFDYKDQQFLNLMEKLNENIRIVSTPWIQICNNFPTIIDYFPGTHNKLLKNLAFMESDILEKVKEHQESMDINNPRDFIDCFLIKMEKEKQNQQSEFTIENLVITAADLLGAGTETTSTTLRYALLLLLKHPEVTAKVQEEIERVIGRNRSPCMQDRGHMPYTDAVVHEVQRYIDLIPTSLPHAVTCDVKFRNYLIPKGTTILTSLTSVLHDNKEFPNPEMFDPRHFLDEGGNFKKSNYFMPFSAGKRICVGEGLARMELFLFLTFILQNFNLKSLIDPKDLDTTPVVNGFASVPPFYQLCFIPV
# experimental.details: Cytochrome P450 Family 2 Subfamily C Member 19 (CYP2C19) small molecule antagonists: luciferase reporter qHTS assay (AID 1671197); further: nearly all actives have a fitted effect of over 65% in size; further: potency means the concentration at half of the fitted maximal effect
# experimental.parameters: P450-Glo CYP2C19 enzyme, luciferin luminescence, 1 h; series mostly up to 52.9 µM
Records with an inconclusive call do not appear. Calls of active or inactive are those of the source. The call rests on the fitted dose curve; in most records, active means well fitted inhibition curve with a large enough effect in the repeat runs; inconclusive means weak or mixed curves; inactive means no such curve, though single readings can be large or run the other way.
experimental.readout: Potency

Below: 10 compounds and their reported Potency.
Challenge: Lookup: Potency / Cytochrome P450 2C19 (Homo sapiens) (UniProt P33261) / "C1CCC2(CCCCO2)OC1"
Response given: inactive

Challenge: For the record "CO/N=C(\C(=O)N[C@@H]1C(=O)N2C(C(=O)O)=C(CSc3nc(=O)c(O)nn3C)CS[C@H]12)c1csc(N)n1" , what value of Potency is listed for Cytochrome P450 2C19 (Homo sapiens) (UniProt P33261)?
Response given: inactive

Challenge: Please tell me: Potency of "O=C1c2ccccc2C(=O)c2cc(O)ccc21" , system Cytochrome P450 2C19 (Homo sapiens) (UniProt P33261)?
Response given: 22.5 µM (active)

Challenge: // fetch Cytochrome P450 2C19 (Homo sapiens) (UniProt P33261) Potency for "Cc1cccc(C)c1NC(=O)CC12CCCN1CCC2"
Response given: inactive

Challenge: Short answer please: Potency, Cytochrome P450 2C19 (Homo sapiens) (UniProt P33261), entry "O=S(=O)(O)c1cccc(S(=O)(=O)O)c1"
Response given: inactive

Challenge: Please provide the recorded Potency for "O=C(O)CCCC[P+](c1ccccc1)(c1ccccc1)c1ccccc1" , tested on Cytochrome P450 2C19 (Homo sapiens) (UniProt P33261).
Response given: inactive

Challenge: Lab note: need Potency with Cytochrome P450 2C19 (Homo sapiens) (UniProt P33261) for entry "C=CN1CCCCCC1=O" , please look it up.
Response given: inactive

Challenge: // map "CN(C)C(=O)Oc1ccc[n+](C)c1" to recorded Potency (system: Cytochrome P450 2C19 (Homo sapiens) (UniProt P33261))
Response given: inactive

Challenge: # value lookup — system Cytochrome P450 2C19 (Homo sapiens) (UniProt P33261), readout Potency, item "CCOC(=O)c1ccccc1"
Response given: inactive

Challenge: Query for Cytochrome P450 2C19 (Homo sapiens) (UniProt P33261): what Potency does the record show for "COC(=O)Nc1ccc(Cl)c(Cl)c1" ?
Response given: 17.7 µM (active)

Then there is this compound:
Challenge: Find Potency (Cytochrome P450 2C19 (Homo sapiens) (UniProt P33261)) for the entry "CC[C@H]1OC(=O)[C@H](C)[C@@H](O[C@H]2C[C@@](C)(OC)[C@@H](O)[C@H](C)O2)[C@H](C)[C@@H](O[C@@H]2O[C@H](C)C[C@H](N(C)C)[C@H]2O)[C@](C)(OC)C[C@@H](C)C(=O)[C@H](C)[C@@H](O)[C@]1(C)O"
Response given: 63.8 µM (active)

---

# measured.on: Glucocorticoid receptor (Homo sapiens)
# experimental.details: qHTS assay to identify small molecule agonists of the glucocorticoid receptor (GR) signaling pathway (AID 720691); further: on the % scale 0 is the no-effect control and ±100 the full control effect
# experimental.parameters: GR-bla HeLa, beta-lactamase reporter ratio, 18 h; series mostly up to 62.4 µM
# Excerpt: U.S. Tox21 Program National Center for Advancing Translational Sciences [NCATS] NIH Chemical Genomics Center [NCGC] U.S. Environmental Protection Agency [EPA] National Institutes of Environmental Health Sciences [NIEHS] National Toxicology Program [NTP] U.S. Food and Drug Administration [FDA] […] The activation of the reporter gene under culture conditions can be detected by fluorescence intensity. […]
Inconclusive results are not listed. Calls of active or inactive are those of the source. Calls come from the whole dose curve; as a rule, active = well fitted activation curve with a large enough effect in the signal ratio in the repeat runs (not every such curve was filed as active); inconclusive = weak or mixed curves, or effect the other way; inactive = no such curve, though single readings can be large or run the other way; the % refers to the signal ratio.
Can you answer with just one of these options? T (active), F (inactive)

Solved cases (3 shown):
Challenge: Hi, do you know how C=CCOCC(O)CO (centres undefined) came out in this test?
Response given: F

Challenge: Any idea what this test logged for "O=[N+]([O-])c1ccc(/C=N\O)o1" ?
Response given: F

Challenge: For "NCCCC[C@H](N[C@@H](CCc1ccccc1)C(=O)O)C(=O)N1CCC[C@H]1C(=O)O" , what call appears in the results of this test?
Response given: F

Others:
Challenge: Tell me the assay call for "C[N+](C)(C)CCCCCCCCCC[N+](C)(C)C" please.
Response given: F

Challenge: Record request — test call for "CC(=O)N1C[C@H](O)C[C@H]1C(=O)O"
Response given: F

Challenge: Which result was noted for this compound in the test: "[Ca+2]"
Response given: F

Challenge: Record lookup: outcome of this test for "COC(=O)Nc1ccc(Cl)c(Cl)c1" ?
Response given: F

Challenge: // outcome(item) with item = "N[C@@H](CCC(=O)O)C(=O)O"
Response given: F

Challenge: Recorded test outcome, item O=C1NC(=O)C2CC=CCC12 (centres undefined)
Response given: F

Challenge: Assay outcome for "CCN[C@H]1C[C@H](C)S(=O)(=O)c2sc(S(N)(=O)=O)cc21" : what was it?
Response given: F

Challenge: Hi, sorry to bother you, what did the test record for "CC(C)=CCC/C(C)=C/C#N" ?
Response given: F

Challenge: Hi, sorry to bother you, what did the test record for "O=CN(CCO)CCO" ?
Response given: F

Challenge: # outcome recorded in this test, key = "CCOc1ccccc1OCC"
Response given: F

Challenge: Could you check what this test reported for "CCCCCC(=O)OCCc1ccccc1" ?
Response given: F

Challenge: What call does the record list for COc1cc(C(=O)OC(COCCC(C)C)CN2CCOCC2)cc(OC)c1OC (centres undefined) ?
Response given: F

Challenge: Returns: the outcome recorded for CC12CCC(C(=O)C1=O)C2(C)C (centres undefined) in this assay.
Response given: F

Challenge: Assay outcome for "CC(C)C(=O)OC(=O)C(C)C" : what was it?
Response given: F

Challenge: What did the test return for "FB(F)F" ?
Response given: F

Challenge: I'd appreciate the recorded outcome for CCC(C)(CN(C)C)OC(=O)c1ccccc1 (centres undefined) from this test.
Response given: F

---

# measured.on: Cytochrome P450 2C19 (Homo sapiens)
# experimental.details: Cytochrome P450 Family 2 Subfamily C Member 19 (CYP2C19) small molecule antagonists: luciferase reporter qHTS assay (AID 1671197); further: nearly all actives have a fitted effect of over 65% in size
# experimental.parameters: P450-Glo CYP2C19 enzyme, luciferin luminescence, 1 h; series mostly up to 52.9 µM
# Excerpt: National Center for Advancing Translational Sciences [NCATS] U.S. Environmental Protection Agency [EPA] National Institutes of Environmental Health Sciences [NIEHS] National Toxicology Program [NTP] U.S. Food and Drug Administration [FDA] Cytochrome P450 (CYP) enzymes are membrane-bound hemeproteins that play a key role in metabolism of drugs and xenobiotics. […] The luciferin products formed are detected with a luciferin detection reagent, and the amount of light produced is proportional to CYP activity. […]
Inconclusive results are not listed. Active and inactive are the calls of the source. The call rests on the fitted dose curve; in most records, active means well fitted inhibition curve with a large enough effect in the repeat runs; inconclusive means weak or mixed curves; inactive means no such curve, though single readings can be large or run the other way.
Lab note: assign the record to one of active, inactive

Challenge: Hey, what did the test say about CC(N)C12CC3CC(CC(C3)C1)C2 (centres undefined) ?
Response given: inactive

Challenge: Hi, sorry to bother you, what did the test record for "Cc1coc2ccccc2c1=O" ?
Response given: inactive

Challenge: # lookup: test call for COCCOC[C@H](CC1(C(=O)NC2CCC(C(=O)O)CC2)CCCC1)C(=O)Oc1ccc2c(c1)CCC2 (some centres undefined)
Response given: inactive

Challenge: Which result was noted for this compound in the test: CC(CC=O)CC(C)(C)C (centres undefined)
Response given: inactive

Challenge: Tell me the assay call for CC[N+](CC)(CC(=O)Nc1c(C)cccc1C)Cc1ccccc1 (tested in a mixture with another compound) please.
Response given: active

New cases:
Challenge: Any idea what this test logged for "CO[C@@]1(NC(=O)CSC[C@@H](N)C(=O)O)C(=O)N2C(C(=O)O)=C(CSc3nnnn3C)CS[C@@H]21" ?
Response given: inactive

Challenge: I'd appreciate the recorded outcome for CC/C=C\CCOC(C)OCC (centres undefined) from this test.
Response given: inactive

Challenge: Any idea what this test logged for "COc1cccc(OC)c1C(=O)N[C@@H]1C(=O)N2[C@@H]1SC(C)(C)[C@@H]2C(=O)O" ?
Response given: inactive

Challenge: What outcome does the record of this test show for "NCCCC[C@H](N[C@@H](CCc1ccccc1)C(=O)O)C(=O)N1CCC[C@H]1C(=O)O" ?
Response given: inactive

Challenge: I would be grateful if you could indicate the recorded call for "CN(C)CCCN(C)CCCN(C)C" .
Response given: inactive

---

# experimental.details: qHTS assay to test for compound auto fluorescence at 535 nm (green) in HepG2 cells (AID 720675); further: on the % scale 0 is the no-effect control and ±100 the full control effect
# experimental.parameters: green autofluorescence 485/535 nm, 1 h; series mostly up to 91.3 µM
Activity calls are given as the source filed them. Calls follow the shape of the dose curve; as a rule, active = well fitted curve in the direction sought with a large enough effect in the repeat runs; inconclusive = weak or mixed curves; inactive = flat fitted curve, though single readings scatter.
experimental.readout: fluorescence, % of fluorescein control

The cases that follow already have their fluorescence, % of fluorescein control on record.
Challenge: Fill in the blank: the reported fluorescence, % of fluorescein control of "NC(N)=NCCN1CCCCCCC1" is ____.
Response given: 0.0444% [at 18.6 µM] (inactive)

Challenge: Tell me the measured fluorescence, % of fluorescein control of "c1coc(CNc2ncnc3nc[nH]c23)c1" , please.
Response given: inactive

Challenge: Requested read-out: fluorescence, % of fluorescein control. Entry: Nc1ccn([C@@H]2O[C@H](CO)[C@@H](O)C2O)c(=O)n1 (stereo not given in full)
Response given: inactive

Challenge: Suppose we examine the compound CC(C)C1CCC(O)CC1 (stereo not given) ; what fluorescence, % of fluorescein control value has been reported?
Response given: inactive

Challenge: Quick one: fluorescence, % of fluorescein control of "O=C(CO)[C@@H](O)[C@H](O)[C@H](O)CO" ?
Response given: inactive

Challenge: Request the reported fluorescence, % of fluorescein control associated with "C=C[Si](OC(C)=O)(OC(C)=O)OC(C)=O"
Response given: inactive

Here are 7 compounds. What values of fluorescence, % of fluorescein control were reported for them?
1. CC(C)CCCO
2. CCN1C=CN(C)C1C (stereo not given)
3. CCCOC(=O)CC
4. COc1cc(C)nc(-n2nc(C)cc2OC)n1
5. CCN(Cc1ccccc1)c1ccccc1
6. Cc1ccc(-c2ncc(Cl)cc2-c2ccc(S(C)(=O)=O)cc2)cn1
7. O=C(O)c1cn(C2CC2)c2cc(N3CCNCC3)c(F)cc2c1=O

Response given:
1: inactive; 2: inactive; 3: inactive; 4: 0.0331% [at 18.6 µM] (inactive); 5: inactive; 6: inactive; 7: 0.0071% [at 18.6 µM] (inactive)

Okay, here is my list. What is fluorescence, % of fluorescein control for each of these?
1. CCN1CCOCC1
2. O=C(O)CNC(=O)c1ccc(CO)o1

Response given:
1. inactive
2. inactive
